- targetOrSystem: purified recombinant mouse ENPP1 (Mus musculus (Mouse), UniProt P06802)
- Sequence (P06802 whole entry): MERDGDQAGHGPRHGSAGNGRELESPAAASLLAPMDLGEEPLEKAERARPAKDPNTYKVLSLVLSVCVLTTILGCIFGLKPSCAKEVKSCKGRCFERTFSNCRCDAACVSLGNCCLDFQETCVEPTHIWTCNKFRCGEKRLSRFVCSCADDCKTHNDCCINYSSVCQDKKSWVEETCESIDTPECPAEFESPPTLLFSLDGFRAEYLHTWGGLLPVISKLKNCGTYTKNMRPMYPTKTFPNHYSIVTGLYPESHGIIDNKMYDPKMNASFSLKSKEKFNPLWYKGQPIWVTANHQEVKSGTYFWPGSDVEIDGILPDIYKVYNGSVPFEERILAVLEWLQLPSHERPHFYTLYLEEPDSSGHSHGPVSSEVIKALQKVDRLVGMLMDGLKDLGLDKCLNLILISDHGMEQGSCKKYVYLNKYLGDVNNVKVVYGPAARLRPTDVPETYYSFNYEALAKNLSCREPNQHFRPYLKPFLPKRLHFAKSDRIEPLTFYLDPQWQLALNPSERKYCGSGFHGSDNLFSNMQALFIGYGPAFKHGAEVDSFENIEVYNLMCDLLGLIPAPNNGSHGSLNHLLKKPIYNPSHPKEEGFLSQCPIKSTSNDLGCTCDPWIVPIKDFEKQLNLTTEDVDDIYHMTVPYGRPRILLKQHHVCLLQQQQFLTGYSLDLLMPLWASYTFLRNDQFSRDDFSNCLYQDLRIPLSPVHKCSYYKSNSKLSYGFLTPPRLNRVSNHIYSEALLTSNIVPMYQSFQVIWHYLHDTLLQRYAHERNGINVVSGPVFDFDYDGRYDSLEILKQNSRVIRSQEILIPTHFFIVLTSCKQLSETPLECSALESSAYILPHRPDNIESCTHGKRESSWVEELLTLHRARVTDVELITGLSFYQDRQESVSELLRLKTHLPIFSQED
- protocol: ENPP1 enzyme activity assay using 32P cGAMP as a substrate
- Type: biochemical
- conditionSet: 32P-cGAMP 5 μM, mouse ENPP1 20 nM, pH 7.5, 5 hours
recordedMetric: IC50

Fill in the blank: the reported IC50 of COc1ccc2c(N3CCC(CCP(=O)(O)O)CC3)nc(C)nc2c1 is ____.
0.5 to 5 µM
